molecular target: IKBKE (human); assay: radiometric filter-binding kinase assay, Kinase HotSpot; conditions: compound 0.5 µM; ATP 10 µM
residual activity values by entry
Numbers only here, please. The scale is %.

Example cases with answers are listed next.
O=S(=O)(NCCNC/C=C/c1ccc(Br)cc1)c1cccc2cnccc12 = 92.3
N#CCCc1ccc2c(c1)-c1[nH]c3ccc([N+](=O)[O-])cc3c1CC(=O)N2 = 89.2

Record CCCCc1c(-c2ccc(O)cc2)[nH]c2nccnc12 . Reported residual activity: 88.3

----------
The compounds listed here are annotated with their residual activity.
biological target: PRKCE (human) (UniProt Q02156); assay: radiometric filter-binding kinase assay, Kinase HotSpot; settings: compound 0.5 µM; ATP 10 µM
Sequence (Q02156 whole entry, looked up): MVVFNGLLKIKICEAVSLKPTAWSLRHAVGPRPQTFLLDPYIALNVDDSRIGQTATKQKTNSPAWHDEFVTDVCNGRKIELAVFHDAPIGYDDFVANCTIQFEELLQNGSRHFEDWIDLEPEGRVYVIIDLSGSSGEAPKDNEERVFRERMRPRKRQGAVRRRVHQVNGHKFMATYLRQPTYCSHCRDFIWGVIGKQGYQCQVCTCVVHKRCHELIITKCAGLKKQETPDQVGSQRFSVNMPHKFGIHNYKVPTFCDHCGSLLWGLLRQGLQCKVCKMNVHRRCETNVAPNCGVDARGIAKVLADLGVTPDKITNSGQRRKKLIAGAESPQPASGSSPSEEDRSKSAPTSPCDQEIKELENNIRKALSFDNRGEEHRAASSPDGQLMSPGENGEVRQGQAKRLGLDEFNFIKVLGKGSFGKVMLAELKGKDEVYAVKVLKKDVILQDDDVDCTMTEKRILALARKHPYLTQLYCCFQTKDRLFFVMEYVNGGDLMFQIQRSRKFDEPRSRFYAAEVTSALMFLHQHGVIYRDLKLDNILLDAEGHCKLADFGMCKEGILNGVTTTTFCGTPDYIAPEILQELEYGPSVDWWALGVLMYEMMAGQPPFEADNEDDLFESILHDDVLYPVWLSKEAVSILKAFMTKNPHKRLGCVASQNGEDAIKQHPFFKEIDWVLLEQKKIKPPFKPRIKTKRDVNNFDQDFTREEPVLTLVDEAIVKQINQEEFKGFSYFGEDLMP

// solved cases for residual activity follow
COc1cc2ncnc(Nc3ccc(O)c(Br)c3)c2cc1OC = 93.2%
O=C(c1ccccc1)c1ccc(N2CCOCC2)cc1O = 92.3%
COc1cc2c(cc1OC)-c1[nH]nc(Nc3cccc(F)c3)c1C2 = 87.9%

Now consider a different compound.
Lab note: CCOc1cc2ncnc(Nc3cccc(Br)c3)c2cc1OCC gave residual activity of 94.5%

----------
molecular target: UniProtKB Q16539; test: radiometric filter-binding kinase assay, Kinase HotSpot; conditions: compound 0.5 µM; ATP 10 µM
Sequence (Q16539 whole entry, looked up): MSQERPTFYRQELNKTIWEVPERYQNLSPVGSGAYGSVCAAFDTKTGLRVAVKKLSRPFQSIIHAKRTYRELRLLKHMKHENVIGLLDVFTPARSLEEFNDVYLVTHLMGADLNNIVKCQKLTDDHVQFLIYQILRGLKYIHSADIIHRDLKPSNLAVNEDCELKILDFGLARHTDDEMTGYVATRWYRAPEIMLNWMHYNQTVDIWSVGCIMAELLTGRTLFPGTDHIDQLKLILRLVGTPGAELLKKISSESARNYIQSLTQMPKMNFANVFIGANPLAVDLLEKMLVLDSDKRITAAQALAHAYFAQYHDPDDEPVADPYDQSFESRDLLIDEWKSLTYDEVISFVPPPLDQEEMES
In this section we review reported residual activity values for a set of compounds.
Field: numeric (%). Do not append units.

CCOc1cc2ncnc(Nc3cccc(Br)c3)c2cc1OCC = 87.5
CCc1nc(-c2ccc(OC)cc2)[nH]c1-c1ccncc1 = 113
COc1cc2c(Nc3ccc(Br)cc3F)ncnc2cc1OCC1CCN(C)CC1 = 91.8

Value of measured residual activity for the entry Cn1cc(/C=C2\C(=O)Nc3ccc(S(N)(=O)=O)cc32)c2ccccc21 : 123

Form: compound = N/C(=N\N=C/c1ccc(-c2cccc([N+](=O)[O-])c2)o1)N[N+](=O)[O-] ; residual activity = 90.2

The reported residual activity of the compound CCCCc1c(-c2ccc(O)cc2)[nH]c2nccnc12 was 102

// residual activity value for O=S(=O)(NCCNC/C=C/c1ccc(Br)cc1)c1cccc2cnccc12 : 105

Kindly note the recorded residual activity for O=c1c(-c2ccc(F)cc2)c(-c2ccncc2)[nH]n1-c1ccc(Cl)cc1 , which is 11.2

residual activity recorded for this compound, Cc1cc(Nc2nc(-c3ccccc3)nc3ccccc23)n[nH]1 , is 103

Short answer for O=C(O)c1ccc2c3c1cccc3c(=O)n1c3ccccc3nc21 : residual activity was 99

----------
Each entry below lists one item and its recorded residual activity value.
target: AURKB (human) (UniProt Q96GD4); test: radiometric filter-binding kinase assay, Kinase HotSpot; conditions: compound 0.5 µM; ATP 10 µM
Sequence (Q96GD4 whole entry, looked up): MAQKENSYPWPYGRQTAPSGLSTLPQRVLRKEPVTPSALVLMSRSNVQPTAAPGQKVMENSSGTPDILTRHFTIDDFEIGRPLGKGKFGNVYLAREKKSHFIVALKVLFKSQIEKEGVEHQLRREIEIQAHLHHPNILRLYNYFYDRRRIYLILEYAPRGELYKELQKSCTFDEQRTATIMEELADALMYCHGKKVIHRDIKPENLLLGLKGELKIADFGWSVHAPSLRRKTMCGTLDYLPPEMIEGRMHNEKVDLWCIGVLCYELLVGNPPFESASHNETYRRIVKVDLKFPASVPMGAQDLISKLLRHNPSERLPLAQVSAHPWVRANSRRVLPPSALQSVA
Give the quantity in %, number only.

N/C(=N\N=C/c1ccc(-c2cccc([N+](=O)[O-])c2)o1)N[N+](=O)[O-] = 99.1
O=S(=O)(NCCNC/C=C/c1ccc(Br)cc1)c1cccc2cnccc12 = 97.8
O=C(c1ccccc1)c1ccc(N2CCOCC2)cc1O = 95.5

Noted for O=c1[nH]c2ccccc2n1C1CCN(Cc2ccc(-c3nc4cc5[nH]cnc5cc4nc3-c3ccccc3)cc2)CC1 : its residual activity reads 98.7

Consider FC(F)(F)c1ccc(/C=C/c2nc(COc3ccc(CCCCn4ccnn4)cc3)co2)cc1 . Its measured residual activity is 98

Entry COc1cccc(-c2cc(=O)c3ccccc3o2)c1N ; residual activity = 102

Entry COc1cc2ncnc(Nc3ccc(O)c(Br)c3)c2cc1OC — recorded residual activity = 63.5

Noted for c1ccc(-c2cnc(Nc3ccc(OCCN4CCCC4)cc3)s2)cc1 : its residual activity reads 75.8

The reported numbers originate from the kinase profiling compilation of Christmann-Franck et al. (2016).
